# Measurement Target: T1, biotinylated CD32bECDHis (human, UniProt P31994 43-223, limits assumed, biotinylated (sites not given))
# T1 sequence (looked up): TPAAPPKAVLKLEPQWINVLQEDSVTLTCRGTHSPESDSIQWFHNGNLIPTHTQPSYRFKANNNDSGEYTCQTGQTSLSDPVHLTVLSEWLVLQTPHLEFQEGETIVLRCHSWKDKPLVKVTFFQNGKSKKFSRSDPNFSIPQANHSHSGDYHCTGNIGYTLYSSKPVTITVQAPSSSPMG
# Test Summary: competition ELISA, competitor 034
Endpoint Name: % residual binding (%)
Number only, in %; omit the unit.

Data request, read-out % residual binding, for Antibody 026 (antibody, V domains shown, Human antibody; also called HuMab 026) VH: QVQLVQSGAEVKKPGASVKVSCKASGYTFTSYGLSWVRQAPGQGLEWMGWISAYNGNTNYAQKLQGRVTMTTDTSTSTAYMDLRSLRSDDTAVYYCARDSAAHGMDVWGQGTTVTVSS VL: DIQMTQSPSSLSASVGDRVTITCRASQGISSWLAWYQQKPEKAPKSLIYAASSLQSGVPSRFSGSRSGTDFTLTISSLQPEDFATYYCQQYNSYPYTFGQGTKLEIKR
0
